experiment: Pharmacokinetics of Compound A after single oral administration at 200 mg in fasted and fed dogs; format: in vivo, male beagle dogs; conditions: beagle, dog, plasma; fasted male dogs, 200 mg oral dose, Gelucire 50/13 hard gelatin capsule, mean
assay endpoint: AUC(0-inf)
Write the figure, then the unit, nothing else.

Prompt: # query: AUC(0-inf) of entry O=C(Nc1ccnc(C(F)(F)F)c1)c1cnn(-c2cccc3c(=O)[nH]ccc23)c1C(F)(F)F [Compound A]
Completion: 578 µg·h/mL

---

Experiment: Pharmacokinetics of Compound A after single oral administration at 200 mg in fasted and fed dogs
Type: in vivo, male beagle dogs
Settings: male, beagle, dog, plasma, po, 200 mg, fasted male dogs, 200 mg oral dose, Gelucire 50/13 hard gelatin capsule, mean; read-out: AUC0-24 h
Protocol: Example 8: Pharmacokinetics of Compound a after Single Oral Administration at 200 Mg in Fasted and Fed Dogs A pharmacokinetic (PK) study was carried out using a Compound A stearoyl polyoxy-32 glycerides formulation. A formulation of compound A and stearoyl polyoxy-32 glycerides (Gelucire® 50/13) in size 00 hard gelatin capsules (200 mg dose per capsule), according to Table 3, was administered orally to male beagle dogs (N=3) in a fasted state as well as a fed state.
assay endpoint: AUC(0-t) (µg·h/mL)
All answers are understood in µg·h/mL, so give the number only.

Prompt: # query: AUC(0-t) of entry O=C(Nc1ccnc(C(F)(F)F)c1)c1cnn(-c2cccc3c(=O)[nH]ccc23)c1C(F)(F)F [Compound A]
Completion: 246

---

assay: Pharmacokinetics of Compound A after single oral administration at 200 mg in fasted and fed dogs; type: in vivo, male beagle dogs; conditions: male, beagle, dog, plasma, po, 200 mg, fed male dogs, 200 mg oral dose, Gelucire 50/13 size 00 hard gelatin capsule, mean, N=3
assay endpoint: Cmax
Write the figure, then the unit, nothing else.

Prompt: # query: Cmax of entry O=C(Nc1ccnc(C(F)(F)F)c1)c1cnn(-c2cccc3c(=O)[nH]ccc23)c1C(F)(F)F
Completion: 9330 ng/mL

---

test: Pharmacokinetics of Compound A after single oral administration at 200 mg in fasted and fed dogs; assay type: in vivo, male beagle dogs; details: male, beagle, dog, plasma, po, 200 mg, fed male dogs, 200 mg oral dose, Gelucire 50/13 hard gelatin capsule, median
assay endpoint: Tmax (h)
All answers are understood in h, so give the number only.

Prompt: # query: Tmax of entry O=C(Nc1ccnc(C(F)(F)F)c1)c1cnn(-c2cccc3c(=O)[nH]ccc23)c1C(F)(F)F [Compound A]
Completion: 24

---

experiment: Pharmacokinetics of Compound A after single oral administration at 200 mg in fasted and fed dogs; format: in vivo, male beagle dogs; conditions: male, beagle, dog, plasma, po, 200 mg, fasted male dogs, 200 mg oral dose, Gelucire 50/13 hard gelatin capsule; N = 2, poor linear regression
assay endpoint: half-life

Prompt: # query: half-life of entry O=C(Nc1ccnc(C(F)(F)F)c1)c1cnn(-c2cccc3c(=O)[nH]ccc23)c1C(F)(F)F
Completion: 30 h

---

assay: Pharmacokinetics of Compound A after single oral administration at 200 mg in fasted and fed dogs; format: in vivo, male beagle dogs; conditions: male, beagle, dog, plasma, po, 200 mg, fasted male dogs, 200 mg oral dose, Gelucire 50/13 hard gelatin capsule, mean; read-out: AUC0-96 h
assay endpoint: AUC(0-t)
Write the figure, then the unit, nothing else.

Prompt: # query: AUC(0-t) of entry O=C(Nc1ccnc(C(F)(F)F)c1)c1cnn(-c2cccc3c(=O)[nH]ccc23)c1C(F)(F)F [Compound A]
Completion: 521 µg·h/mL
